Target: T1, human NKp46 (full length, on cells) (human, UniProt O76036 22-304)
T1 construct: also called human NKp46-CHOK1
T1 sequence (O76036 22-304 Q82K): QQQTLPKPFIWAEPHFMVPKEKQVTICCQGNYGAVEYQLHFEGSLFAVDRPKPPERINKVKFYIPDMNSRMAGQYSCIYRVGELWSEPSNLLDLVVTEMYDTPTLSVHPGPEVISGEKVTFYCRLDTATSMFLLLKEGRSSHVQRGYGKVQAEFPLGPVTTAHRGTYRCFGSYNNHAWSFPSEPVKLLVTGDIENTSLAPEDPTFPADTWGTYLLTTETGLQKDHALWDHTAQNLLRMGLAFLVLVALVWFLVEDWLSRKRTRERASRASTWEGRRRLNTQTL
Assay: flow cytometry on human NKp46-CHOK1 cells
Field: Top MFI. Provide a value for each of the binders that follow.
Hey, just send me the number, nothing else.

Need Top MFI, item H4-PC11 humanized antibody (antibody, human IgG1, V domains shown, not shown: constant region of human IgG1) VH: EVQLVESGGGLVQPGGSLRLSCAPSPYSANSFSMAWFRQAPGKGREGIACIQAESGSTNVAPSVKGRFTISQDNSKNTLYLQMNSLRAEDTAVYYCAAFKRNVGGCELRPEHWRFWGQGTLVTVSS
7240

Which Top MFI is listed for H3-PA45 humanized antibody (antibody, V domains shown, not shown: constant region of human IgG1) VH: EVQLVESGGGLVQPGGSLRLSCAASGRTFSRLPMAWFRQAPGKGREFVAAISWSGGSTYYADSMKGRFTISRDNSKNTAYLQMNSLRAEDTAVYYCAAVGDSAPYSATIVYTDARAYAYWGQGTLVTVSS ?
5720
